B1: Cytoplasmic polyadenylation element-binding protein 2, residues 513 to 575; numbered along this chain, Q7Z5Q1 (parent)
chain: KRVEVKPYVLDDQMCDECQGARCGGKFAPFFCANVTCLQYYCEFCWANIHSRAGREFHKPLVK

- Variants of: B1
- procedure_summary: abundance fitness (aPCA) (normalised: wild type 0, dead -1); higher = more abundant; growth selection in yeast, the domain comes from the species named
- stated_conditions: Homo sapiens
Each record gets a class by abundance fitness: low range = under -0.2, mid range = from -0.2 up to -0.08, high range = -0.08 and over

Take a look at these entries with their results.
>  <seq>
KRVEVKPYVLDDQMCDECQGARCGGKFAPFFCANVTCLQYYCEFCWANIHSRAGIEFHKPLVK

>  <qualitative_label>
high range

$$$$
>  <seq>
KRVEVKPYVLDDQMCDECQGARCGGKFAPFFCANVTCLQYYCENCWANIHSRAGREFHKPLVK

>  <qualitative_label>
high range

$$$$
>  <seq>
KRVEVKPYVLDNQMCDECQGARCGGKFAPFFCANVTCLQYYCEFCWANIHSRAGREFHKPLVK

>  <qualitative_label>
high range

$$$$
>  <seq>
KRVSVKPYVLDDQMCDECQGARCGGKFAPFFCANVTCLQYYCEFCWANIHSRAGREFHKPLVK

>  <qualitative_label>
mid range

$$$$
>  <seq>
KRVEVKPYVLADQMCDECQGARCGGKFAPFFCANVTCLQYYCEFCWANIHSRAGREFHKPLVK

>  <qualitative_label>
mid range

$$$$
>  <seq>
KRVEVKPYVLDDQMCDECQGARCGGKFAPFFCANVTCLQYYCEFCDANIHSRAGREFHKPLVK

>  <qualitative_label>
low range

$$$$

Continue with the variant presented below.
-- ask Which category fits this record: KRVEVKPYVLDDQMCDECQGARCLGKFAPFFCANVTCLQYYCEFCWANIHSRAGREFHKPLVK
-- reply mid range

Entry source: the Human Domainome abundance scans (Beltran et al. 2025)
